In this section we review reported relative viability values for a set of compounds.
Test system: 201T
Assay: relative viability (nuclei count vs DMSO), 5 days (fraction); higher = more cells survive
Details: first compound 0.253 µM

Solved entries (count: 4):
compound	relative viability
Oc1nc(-c2ccc(C(F)(F)F)cc2)nc2c1CSCC2 [XAV939] + Nc1ncn([C@H]2C[C@H](O)[C@@H](CO)O2)c(=O)n1 [Decitabine] (partner 2 µM)	0.901
Oc1nc(-c2ccc(C(F)(F)F)cc2)nc2c1CSCC2 [XAV939] + O=C(CCCCCCC(=O)Nc1ccccc1)NO [Vorinostat] (partner 1 µM)	0.794
C=C1C(=O)O[C@@H](CCCCCCCC)[C@@H]1C(=O)O [C-75] + Nc1nc2[nH]cc(CCc3ccc(C(=O)N[C@@H](CCC(=O)O)C(=O)O)cc3)c2c(=O)[nH]1 [Pemetrexed] (partner 0.2 µM)	0.323
Oc1nc(-c2ccc(C(F)(F)F)cc2)nc2c1CSCC2 [XAV939] + CC1(C)CCC(c2ccc(Cl)cc2)=C(CN2CCN(c3ccc(C(=O)NS(=O)(=O)c4ccc(N[C@H](CCN5CCOCC5)CSc5ccccc5)c(S(=O)(=O)C(F)(F)F)c4)cc3)CC2)C1 [Navitoclax] (partner 0.5 µM)	1.13

We now examine a further compound.
For C=C1C(=O)O[C@@H](CCCCCCCC)[C@@H]1C(=O)O [C-75] + O=C(CCCCCCC(=O)Nc1ccccc1)NO [Vorinostat] (partner 1 µM) , what is its reported relative viability?
1.31

###

Tested on: NCI-H1650
Assay: relative viability (nuclei count vs DMSO), 5 days (fraction); higher = more cells survive
Conditions: first compound 0.4 µM
endpoint_name: relative viability
Note: the reply should be a number with no unit written.

molecule	target	relative viability
O=C(O)c1ccc(-c2c[nH]c3ncc(-c4ccccc4)cc23)cc1C1CCCC1 + O=C(c1cc(Cc2n[nH]c(=O)c3ccccc23)ccc1F)N1CCN(C(=O)C2CC2)CC1 [Olaparib] (partner 8 µM)	NCI-H1650	0.65
O=C(O)c1ccc(-c2c[nH]c3ncc(-c4ccccc4)cc23)cc1C1CCCC1 + C[C@@H](Oc1cc(-c2cnn(C3CCNCC3)c2)cnc1N)c1c(Cl)ccc(F)c1Cl [Crizotinib] (partner 1 µM)	NCI-H1650	0.917

Recorded relative viability of O=C(O)c1ccc(-c2c[nH]c3ncc(-c4ccccc4)cc23)cc1C1CCCC1 + COc1cccc2cc(-c3nc([C@H]4CC[C@H](C(=O)O)CC4)n4ncnc(N)c34)[nH]c12 [OSI-027] (partner 0.5 µM) , please.
0.624

Can you check O=C(O)c1ccc(-c2c[nH]c3ncc(-c4ccccc4)cc23)cc1C1CCCC1 + N=C(N)NC(=N)NCCc1ccccc1 [Phenformin] (partner 250 µM) next?
0.338

Also O=C(O)c1ccc(-c2c[nH]c3ncc(-c4ccccc4)cc23)cc1C1CCCC1 + CS(=O)(=O)CCNCc1ccc(-c2ccc3ncnc(Nc4ccc(OCc5cccc(F)c5)c(Cl)c4)c3c2)o1 [Lapatinib] (partner 2 µM) ?
0.725

Now give it for O=C(O)c1ccc(-c2c[nH]c3ncc(-c4ccccc4)cc23)cc1C1CCCC1 + Cc1nc(Nc2ncc(C(=O)Nc3c(C)cccc3Cl)s2)cc(N2CCN(CCO)CC2)n1 [Dasatinib] (partner 0.075 µM) too.
0.37

Data provenance is the supplement of paper PMC10307832.
